- System: MCF7 breast
- EXPERIMENTAL PROTOCOL: NCI-60 one-dose screen, 48 h
- STUDY CONDITIONS: 10 µM unless noted
- Experimental: Growth inhibition of the MCF7 human tumor cell line is measured as a screen for anti-cancer activity. Cells are grown in 96 well plates and exposed to the test compound for 48 hours. Compounds are tested at a single concentration, which is 10^-5 M for most compounds. The reported endpoint is percent growth (GI% or GIPRCNT), where numbers from 0 - 100% represent growth inhibition, and numbers from -100% - 0 represent cell death. For example, a value of 40 represents 60% growth inhibition. […]
About 83,000 compounds went through this panel and 20% of them were active in at least one assay; those are over-represented in the sample as a whole. Active and inactive are the calls of the source. The calls were made as follows: active = growth percent below 10; inactive = the rest.
Respond with a class label; see active, inactive

> print(dat)
                                   compound  target.desc  assigned.class
1  COc1cc(OC)c(C(=O)/C=C/c2ccc(C#N)cc2)c(OC)c1  MCF7 breast        inactive
2  COc1cccc(-c2nc3sccn3c2-c2ccnc(NCCCNS(=O)(=O)c3ccccc3)n2)c1  MCF7 breast        inactive

Prompt: Outcome logged for O=S(=O)(NCCCNc1nccc(-c2c(-c3ccccc3)nc3sccn23)n1)c1ccc(F)cc1 in this assay:
Response: inactive

Prompt: Query: recorded result category for CCN(CC)CCCC(C)N=c1cc(Nc2cc(=NC(C)CCCN(CC)CC)c3cc(OC)ccc3o2)oc2ccc(OC)cc12 (stereo not given) in this test
Response: active

Prompt: Hey, what did the test say about O=C(O)C(=Cc1c2ccccc2cc2ccccc12)C(=O)O ?
Response: inactive

###

- Test system: SNB-19 CNS
- EXPERIMENTAL PROTOCOL: NCI-60 one-dose screen, 48 h
- STUDY CONDITIONS: 10 µM unless noted
This is part of a sample that, as a whole, favours compounds with a hit. Of some 83,000 tested, about 20% had one in any assay. Activity calls are given as the source filed them. How the source made its calls: active means growth percent below 10; inactive means the rest.
// one of active, inactive, no free text

// below: answered compounds
> print(dat)
                                   compound  assigned.class
1  Cc1ccc2nc(-c3c(N)n[nH]c3CCCO)[nH]c(=O)c2c1        inactive
2  COc1ccc(NC(=S)/N=c2\oc3c(OC)cccc3cc2-c2cc3ccccc3[nH]2)cc1        inactive
3  COc1cc(/C=C/C(=O)c2ccc(NC(=O)CN3CCN(c4cc5c(cc4F)c(=O)c(C(=O)O)cn5C4CC4)CC3)cc2)cc(OC)c1OC        inactive
4  O=C(Nc1ccccc1)OCC1OCOC(COC(=O)Nc2ccccc2)C1OC(=O)Nc1ccccc1 (centres undefined)        inactive
5  CC(C)(C)c1cc(-c2nc3ccc(N4CCN(CCO)CC4)cc3[nH]2)cc(C(C)(C)C)c1O        inactive

Prompt: Per the records of this test, what outcome belongs to CCCC(C(=O)OCC)C(C)OC(=O)OCC (centres undefined) ?
Response: inactive

Prompt: Check the results log: what was the call for Cc1ccc(S(=O)(=O)N2CCC(C(=O)Nc3ccc(F)cc3F)CC2)cc1 ?
Response: inactive

Prompt: Field: outcome | Entry: CN1CCN(CCCOc2ccc3nc(Nc4ccc(C(F)(F)F)c(Cl)c4)ccc3c2)CC1
Response: active

Prompt: Any idea what this test logged for Cc1ccc(S(=O)(=O)OCC(=O)Nc2ccc(C(=O)O)c(O)c2)cc1 ?
Response: inactive

Source of measurements: PubChem BioAssay (NCI)
